Provenance of the data: ChEMBL document CHEMBL4261524

Below, each of the compounds is paired with its reported pEC50 value.
# TARGET_ENTITY: Free fatty acid receptor 1 (Homo sapiens, UniProt O14842)
# Sequence (O14842 whole entry, the tested form may be a part): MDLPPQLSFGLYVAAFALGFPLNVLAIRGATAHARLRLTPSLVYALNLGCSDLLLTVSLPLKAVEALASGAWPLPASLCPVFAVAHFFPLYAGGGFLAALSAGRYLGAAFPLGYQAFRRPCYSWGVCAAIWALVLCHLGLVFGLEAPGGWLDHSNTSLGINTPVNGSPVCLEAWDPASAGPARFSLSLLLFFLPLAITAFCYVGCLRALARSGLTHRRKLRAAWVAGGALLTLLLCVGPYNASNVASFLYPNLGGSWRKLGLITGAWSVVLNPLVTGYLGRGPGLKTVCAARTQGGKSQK
# METHOD_NOTES: Agonist activity at N-terminal FLAG-tagged/C-terminal eYFP-fused human FFA1 receptor expressed in HEK293T cells assessed as induction of beta-arrestin-2 recruitment after 15 mins by BRET assay
# Format: functional, cell-based
pEC50: −log10 of the molar value.
MEASUREMENT_NAME: pEC50

>>> reported("CCCCCCCCC(O)CCC(=O)O (stereo unspecified)")
"< 4.00"
>>> reported("CCCCCC(O)CCCCCC(=O)O (stereo unspecified)")
"< 4.00"
>>> reported("CCC(O)CCCCCCCCC(=O)O (stereo unspecified)")
"< 4.00"
>>> reported("CCCCCCCCCC(O)CC(=O)O (stereo unspecified)")
"< 4.00"
>>> reported("CCCCCCCCCCC(O)C(=O)O (stereo unspecified)")
5.17
>>> reported("CC(O)CCCCCCCCCC(=O)O (stereo unspecified)")
"< 4.00"
>>> reported("CCCC(O)CCCCCCCC(=O)O (stereo unspecified)")
"< 4.00"
>>> reported("CCCCC(O)CCCCCCC(=O)O (stereo unspecified)")
"< 4.00"
>>> reported("CCCCCCC(O)CCCCC(=O)O (stereo unspecified)")
4.73
>>> reported("CCCCCCCC(O)CCCC(=O)O (stereo unspecified)")
"< 4.00"
>>> reported("O=C(O)CCCCCCCCCCCO")
"< 4.00"

###

# TARGET_ENTITY: G-protein coupled receptor 84 (Homo sapiens)
# METHOD_NOTES: Agonist activity at N-terminal FLAG-tagged/C-terminal eYFP-fused human GPR84 expressed in CHO cell membranes assessed as induction of [35S]GTPgammaS binding after 1 hr by liquid scintillation counting method
# Format: functional
MEASUREMENT_NAME: EC50 (µM)

>>> reported("CCCCCCCCCCC(O)C(=O)O (configuration not stated)")
12.9
>>> reported("O=C(O)CCCCCCCCCCCO")
20.9
>>> reported("CCCCCCCCCCCC(=O)O [DODECANOATE]")
10.5
>>> reported("CCCCCCCCC(O)CCC(=O)O (configuration not stated)")
38
>>> reported("CCCCCCCCCC(O)CC(=O)O (configuration not stated)")
5.25

###

# TARGET_ENTITY: G-protein coupled receptor 84 (Homo sapiens, UniProt Q9NQS5)
# Sequence (Q9NQS5 whole entry, the tested form may be a part): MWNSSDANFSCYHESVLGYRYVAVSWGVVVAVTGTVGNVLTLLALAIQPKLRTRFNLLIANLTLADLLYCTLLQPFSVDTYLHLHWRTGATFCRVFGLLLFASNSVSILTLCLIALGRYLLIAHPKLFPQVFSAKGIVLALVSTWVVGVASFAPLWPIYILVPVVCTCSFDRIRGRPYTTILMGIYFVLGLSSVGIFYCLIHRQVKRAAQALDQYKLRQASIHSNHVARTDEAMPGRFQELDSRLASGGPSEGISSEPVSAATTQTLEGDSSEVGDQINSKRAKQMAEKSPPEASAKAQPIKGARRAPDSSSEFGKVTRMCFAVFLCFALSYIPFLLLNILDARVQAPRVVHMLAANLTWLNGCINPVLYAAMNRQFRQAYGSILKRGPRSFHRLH
# METHOD_NOTES: Agonist activity at N-terminal FLAG-tagged/C-terminal eYFP-fused human GPR84 expressed in CHO cell membranes assessed as inhibition of forskolin-induced cAMP accumulation preincubated for 20 mins followed by forskolin-induction and measured after 20 mins
# Type: functional, cell-based
pEC50: −log10 of the molar value.
MEASUREMENT_NAME: pEC50

>>> reported("CCCCCCCCCCCC(=O)O [DODECANOATE]")
5.06

###

# TARGET_ENTITY: Free fatty acid receptor 4 (Homo sapiens)
# Sequence (Q5NUL3 whole entry, the tested form may be a part): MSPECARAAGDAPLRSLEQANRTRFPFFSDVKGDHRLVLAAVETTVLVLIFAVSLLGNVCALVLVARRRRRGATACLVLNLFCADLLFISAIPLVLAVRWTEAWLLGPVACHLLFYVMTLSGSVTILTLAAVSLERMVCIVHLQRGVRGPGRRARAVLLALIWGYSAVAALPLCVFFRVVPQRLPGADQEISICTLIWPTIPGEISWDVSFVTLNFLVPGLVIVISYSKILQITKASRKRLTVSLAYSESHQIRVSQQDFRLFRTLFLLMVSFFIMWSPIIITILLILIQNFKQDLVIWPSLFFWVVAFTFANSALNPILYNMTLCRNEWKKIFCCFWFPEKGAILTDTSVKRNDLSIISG
# METHOD_NOTES: Agonist activity at N-terminal FLAG-tagged/C-terminal eYFP-fused human FFA4 receptor expressed in HEK293T cells assessed as induction of beta-arrestin-2 recruitment after 5 mins by BRET assay
MEASUREMENT_NAME: EC50

>>> reported("CCCCCCCCC(O)CCC(=O)O (stereo not given)")
"> 100 µM"
>>> reported("CCCCCCCCCCC(O)C(=O)O (stereo not given)")
"> 100 µM"
>>> reported("CCCCCCCC(O)CCCC(=O)O (stereo not given)")
"> 100 µM"
>>> reported("CCC(O)CCCCCCCCC(=O)O (stereo not given)")
"> 100 µM"
>>> reported("CCCCC(O)CCCCCCC(=O)O (stereo not given)")
"> 100 µM"
>>> reported("CCCCCC[C@@H](O)C/C=C\\CCCCCCCC(=O)O")
"1.32 µM"
>>> reported("CCCCCCCCCC(O)CC(=O)O (stereo not given)")
"> 100 µM"
>>> reported("CCCCCCCCCCCC(=O)O [DODECANOATE]")
"7.59 µM"
>>> reported("CCCCCCC(O)CCCCC(=O)O (stereo not given)")
"> 100 µM"
>>> reported("CCCCCCC(O)CCCCCCCCCCC(=O)O (stereo not given)")
"1.74 µM"
>>> reported("O=C(O)CCCCCCCCCCCCCCCO")
"1.7 µM"
>>> reported("CC(O)CCCCCCCCCC(=O)O (stereo not given)")
"> 100 µM"
>>> reported("CCCCCC(O)CCCCCC(=O)O (stereo not given)")
"> 100 µM"
>>> reported("CCCC(O)CCCCCCCC(=O)O (stereo not given)")
"> 100 µM"
>>> reported("O=C(O)CCCCCCCCCCCO")
"> 100 µM"

###

# TARGET_ENTITY: Free fatty acid receptor 1 (Homo sapiens, UniProt O14842)
# METHOD_NOTES: Agonist activity at N-terminal FLAG-tagged/C-terminal eYFP-fused human FFA1 receptor expressed in Flp-In T-Rex 293 cells assessed as induction of Ca2+ mobilization after 45 mins by Fura2-AM dye-based fluorescence assay
# Format: functional, cell-based
pEC50: −log10 of the molar value.
MEASUREMENT_NAME: pEC50

>>> reported("O=C(O)CCCCCCCCCCCCCCCO")
4.68
>>> reported("CCCCCCCCCCCC(=O)O [DODECANOATE]")
4.94
>>> reported("CCCCCC[C@@H](O)C/C=C\\CCCCCCCC(=O)O")
4.94
